pIC50: −log10 of the molar value.
Endpoint summary: pIC50, system: Glycogen synthase kinase-3 beta (Homo sapiens, UniProt P49841), multiple sources combined.
METRIC_NAME: pIC50

>>> result("O=C(CN1CCCn2c1nc(-c1ccncc1)c(F)c2=O)c1cccc(F)c1")
8.40

[1] Cc1cc(C)cc(-c2cc3nccn3c(NCCNc3ccc([N+](=O)[O-])c(N)n3)n2)c1
[2] CC(=O)Nc1cccc(-c2ccnc(Nc3ccccc3)n2)c1
Lab log: flag the item ( 1 or 2 ) with the smaller pIC50 figure. Record your answer as the label of the chosen record.
2

[P] CC1CN(c2ccncc2NC(=O)c2ccnn3ccnc23)CCO1 (centres unmarked)
[Q] Nc1nc(NCCNc2nc(-c3ccc(Cl)cc3Cl)cn3ncnc23)ccc1C(=O)C(F)(F)F
[R] O=C(Nc1cnccc1-c1ccc(F)cc1)c1ccnn2cc(C3=CCCCC3)nc12
Please produce an ascending ranking of these compounds based on pIC50. Lab note: record answer as labels in requested order.
Q, R, P

[a] COc1ccc(S(N)(=O)=O)cc1C(=O)NC1COCCn2c1nc(-c1ccncn1)cc2=O (racemic)
[b] COc1cc(F)ccc1C(O)CN1CC(C)(C)Cn2c1nc(-c1ccncn1)cc2=O (racemic)
// select label with min value of measured pIC50 from [ a , b ] Identify your selection by its label.
b

[a] O=[N+]([O-])c1cccc(Nc2nccc(-c3cccc(CN4CCCC(CO)C4)c3)n2)c1 (centres unmarked)
[b] O=C(CN1CCCn2c1nc(-c1ccncc1)c(Cl)c2=O)c1ccccc1
Could you determine which record has the numerically smaller pIC50? Candidates: a and b Please identify the chosen entry by its label.
a
